Value source: patent US20180318382

Property: pKi; scope: individual binders
# measured-target: T1, TIP-1 (human, UniProt O14907)
# T1 chain: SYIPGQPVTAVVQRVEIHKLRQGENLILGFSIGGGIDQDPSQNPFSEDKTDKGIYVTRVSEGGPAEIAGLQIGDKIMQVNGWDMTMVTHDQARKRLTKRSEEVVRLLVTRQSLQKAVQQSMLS
# procedure-summary: FP, competition
Where no end group is shown, it is not given here.
// scale note: pKi = -log10(conc_M); give the bare number

Qu. Specify pKi for ANSRWQVTRV [ANSRWQVTRV (second entry)] and stop.
Ans. 7.24

Qu. Specify pKi for Ac-WPVTRV [Ac-WPVTRV] and stop.
Ans. 6.59

Qu. Specify pKi for "ANSRWQVTRV" and stop.
Ans. 7.24
